Hello, the source for this data is paper PMC11747885, in case you need it.

// 1-D Distance lookup, one value per entry
System Under Test: Rlig1-AMP (Homo sapiens, UniProt Q8N999)
Construct: made in house; host or cells: E. coli BL21 (DE3), pET15b-Rlig1
Sequence (Q8N999 whole entry): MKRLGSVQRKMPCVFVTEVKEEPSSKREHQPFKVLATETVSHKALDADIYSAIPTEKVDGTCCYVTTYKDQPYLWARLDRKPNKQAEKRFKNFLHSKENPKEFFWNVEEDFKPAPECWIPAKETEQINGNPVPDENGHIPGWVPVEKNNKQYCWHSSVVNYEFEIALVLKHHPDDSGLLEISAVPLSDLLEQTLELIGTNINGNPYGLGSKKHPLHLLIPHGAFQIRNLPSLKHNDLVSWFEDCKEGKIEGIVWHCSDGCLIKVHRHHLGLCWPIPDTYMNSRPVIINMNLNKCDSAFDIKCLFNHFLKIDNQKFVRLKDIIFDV
Procedure Text: FRET-based high-throughput screening of inhibitors for Rlig1-AMP
Assay type: biochemical
Study Conditions: HTS hits; difference of raw data without and with enzyme
Lab note: write the figure by itself, no unit.

Cc1ccc(C(=O)Nc2ccc(S(=O)(=O)[O-])c3cc(S(=O)(=O)[O-])cc(S(=O)(=O)[O-])c23)cc1NC(=O)c1cccc(NC(=O)Nc2cccc(C(=O)Nc3cc(C(=O)Nc4ccc(S(=O)(=O)[O-])c5cc(S(=O)(=O)[O-])cc(S(=O)(=O)[O-])c45)ccc3C)c2)c1.[Na+].[Na+].[Na+].[Na+].[Na+].[Na+] [Suramin (sodium salt)]; 1150

Sample c1cnc(N2CCN(Cc3ccc4c(c3)OCO4)CC2)nc1 — what was its 1-D Distance?
1702

Sample O=c1[nH]c(=O)c2ccccc2[nH]1 — what was its 1-D Distance?
1891

* * *

System Under Test: Rlig1-AMP (Homo sapiens)
Construct: made in house; host or cells: E. coli BL21 (DE3), pET15b-Rlig1
Procedure Text: FRET-based high-throughput screening of inhibitors for Rlig1-AMP
Assay type: biochemical
Study Conditions: HTS hits; difference of raw data without and with enzyme
Result Type: 1-D Distance
Lab note: write the figure by itself, no unit.

CN(C)CCOC(=O)COc1ccc(Cl)cc1.Cl [Meclofenoxate (hydrochloride)]; 1832
COCC(=O)O[C@]1(CCN(C)CCCc2nc3ccccc3[nH]2)CCc2cc(F)ccc2[C@@H]1C(C)C.Cl.Cl [Mibefradil (dihydrochloride)]; 1786

Note: attention shifts to another entry.
Sample COc1cccc2c1C(=O)c1c(O)c3c(c(O)c1C2=O)C[C@@](O)(C(=O)CO)C[C@@H]3O[C@H]1C[C@H](N)[C@@H](O)[C@H](C)O1.Cl [Epirubicin (hydrochloride)] — what was its 1-D Distance?
316

* * *

System Under Test: Rlig1-AMP (Homo sapiens, UniProt Q8N999)
Construct: made in house; host or cells: E. coli BL21 (DE3), pET15b-Rlig1
Procedure Text: FRET-based high-throughput screening of inhibitors for Rlig1-AMP
Format: biochemical
Study Conditions: HTS hits; difference of raw data w/o and w enzyme
// 1-D Distance lookup, one value per entry
Lab note: write the figure by itself, no unit.

CN(C)CCSSCCNC(=O)C1CCN(C(=O)CSc2ccc(Cl)cc2)CC1.O=C(O)C(F)(F)F [6H05 (TFA)]; 1774
Cl.O=C1NCC2(CCN(CCc3ccccc3)CC2)O1 [Fenspiride (hydrochloride)]; 1963

// fetch Rlig1-AMP (Homo sapiens, UniProt Q8N999) 1-D Distance for OC[C@H]1O[C@@H](Oc2cc3c(O)cc(O)cc3[o+]c2-c2cc(O)c(O)c(O)c2)[C@H](O)[C@@H](O)[C@@H]1O.[Cl-] [Delphinidin 3-glucoside (chloride)]
1749

// fetch Rlig1-AMP (Homo sapiens, UniProt Q8N999) 1-D Distance for O=[N+]([O-])c1ccc(Nc2ccccc2-c2ccccc2)c2nonc12
758

* * *

// Raw data [w/o Enzym] lookup, one value per entry
System Under Test: Rlig1-AMP (Homo sapiens)
Construct: made in house; host or cells: E. coli BL21 (DE3), pET15b-Rlig1
Procedure Text: FRET-based high-throughput screening of inhibitors for Rlig1-AMP
Type: biochemical
Study Conditions: HTS hits; without enzyme
Lab note: write the figure by itself, no unit.

Example entries begin here.
NC[C@@H]1O[C@H](O[C@H]2[C@@H](O)[C@H](O[C@@H]3[C@@H](O)[C@H](N)C[C@H](N)[C@H]3O[C@H]3O[C@H](CN)[C@@H](O)[C@H](O)[C@H]3N)O[C@@H]2CO)[C@H](N)[C@@H](O)[C@@H]1O.O=S(=O)(O)O [Neomycin (sulfate)]; 8455
CC(C)N=C(N)c1ccc2nc(-c3ccc(OCc4cccc(COc5ccc(-c6nc7ccc(C(N)=NC(C)C)cc7[nH]6)cc5)c4F)cc3)[nH]c2c1 [DB2313]; 4852
CN(C)Cc1ccc(-c2cnn3c(-c4cccc(NC(=O)c5cccc(C(F)(F)F)c5)c4)ccnc23)cc1 [B-Raf IN 1]; 7758

Sample CC(C)c1nc2c([nH]1)-c1ccccc1C(=O)C2=O [KL1333] — what was its Raw data [w/o Enzym]?
12619

* * *

System Under Test: Rlig1-AMP (Homo sapiens, UniProt Q8N999)
Construct: made in house; host or cells: E. coli BL21 (DE3), pET15b-Rlig1
Procedure Text: Radioactive RNA ligation assay (hit validation, 10 µM test and IC50 determination)
Type: biochemical
Study Conditions: log of µM; four-parameter fit
// LogIC50 (best-fit value) lookup, one value per entry

Nc1cc(Nc2ccc(NC(=O)c3ccc(Nc4ccnc5ccccc45)cc3)cc2)ccn1; 0.5866
Nc1nccc(Nc2ccc(NC(=O)c3ccc(Nc4ncnc5ccccc45)cc3)cc2)n1; 0.6569
CNc1nccc(Nc2ccc(NC(=O)c3ccc(Nc4ccnc5ccccc45)cc3)cc2)n1; 0.5177

Note: attention shifts to another entry.
// fetch Rlig1-AMP (Homo sapiens, UniProt Q8N999) LogIC50 (best-fit value) for Cc1cc(Nc2ccc(NC(=O)c3ccc(Nc4ncnc5ccccc45)cc3)cc2)nc(N)n1
0.8461

* * *

// HillSlope (best-fit value) lookup, one value per entry
System Under Test: Rlig1-AMP (Homo sapiens)
Construct: made in house; host or cells: E. coli BL21 (DE3), pET15b-Rlig1
Procedure Text: Radioactive RNA ligation assay (hit validation, 10 µM test and IC50 determination)
Format: biochemical
Study Conditions: four-parameter fit

Example entries begin here.
Nc1nc(Nc2ccc(NC(=O)c3ccc(Nc4ccnc5ccccc45)cc3)cc2)cc(C(F)(F)F)n1 [Compound 41]; 6.706
Nc1nccc(Nc2ccc(NC(=O)c3ccc(Nc4ccnc5ccccc45)cc3)cc2)n1 [Compound 26]; 3.34
Nc1cc(Nc2ccc(NC(=O)c3ccc(Nc4ccnc5ccccc45)cc3)cc2)ccn1 [Compound 36]; 3.369
Cc1cc(Nc2ccc(NC(=O)c3ccc(Nc4ncnc5ccccc45)cc3)cc2)nc(N)n1 [Compound 45]; 4.095
Cc1cc(Nc2ccc(NC(=O)c3ccc(Nc4ccnc5[nH]ccc45)cc3)cc2)nc(N)n1 [Compound 46]; 6.864

Sample Nc1nccc(Nc2ccc(NC(=O)c3ccc(Nc4ncnc5ccccc45)cc3)cc2)n1 [Compound 47] — what was its HillSlope (best-fit value)?
6.82

Sample CNc1nccc(Nc2ccc(NC(=O)c3ccc(Nc4ccnc5ccccc45)cc3)cc2)n1 [Compound 42] — what was its HillSlope (best-fit value)?
5.584

* * *

// 1-D Distance lookup, one value per entry
System Under Test: Rlig1-AMP (Homo sapiens, UniProt Q8N999)
Construct: made in house; host or cells: E. coli BL21 (DE3), pET15b-Rlig1
Procedure Text: FRET-based high-throughput screening of inhibitors for Rlig1-AMP
Format: biochemical
Study Conditions: HTS hits; difference of raw data w/o and w enzyme
Lab note: write the figure by itself, no unit.

N[C@@H](CS)C(=O)O; 1124
CCCCCCCCN=c1ccn(CCCCCCCCCCn2ccc(=NCCCCCCCC)cc2)cc1.Cl.Cl [Octenidine (dihydrochloride)]; 1500
COc1cc2c(NC3CCN(C)CC3)cc(-c3ccc(C)o3)nc2cc1OCCCN1CCCC1; 449
O=C(O)c1cc(O)c2c(c1)[C@@H]([C@H]1c3cc(C(=O)O)cc(O)c3C(=O)c3c(O[C@@H]4O[C@H](CO)[C@@H](O)[C@H](O)[C@H]4O)cccc31)c1cccc(O[C@@H]3O[C@H](CO)[C@@H](O)[C@H](O)[C@H]3O)c1C2=O [Sennoside B]; 1108
CCC(O)C(=O)[O-].[Na+] (centres unmarked) [Sodium 2-hydroxybutanoate]; 1888

// fetch Rlig1-AMP (Homo sapiens, UniProt Q8N999) 1-D Distance for Cc1cc(Nc2ccc(NC(=O)c3ccc(Nc4ccnc5ccccc45)cc3)cc2)nc(N)n1 [Compound 1, SGI-1027, reference compound]
390

// fetch Rlig1-AMP (Homo sapiens, UniProt Q8N999) 1-D Distance for CN(C)c1ccc2c(c1)Sc1cc(N(C)C)ccc1N2.CS(=O)(=O)O.CS(=O)(=O)O [Leucomethylene blue (mesylate)]
1844

// fetch Rlig1-AMP (Homo sapiens, UniProt Q8N999) 1-D Distance for Cl[TeH]1(Cl)(Cl)OCCO1
1663

// fetch Rlig1-AMP (Homo sapiens, UniProt Q8N999) 1-D Distance for CN(C)C/C=C/C(=O)Nc1ccc(C(=O)Nc2cccc(Nc3ncc(Cl)c(-c4c[nH]c5ccccc45)n3)c2)cc1.Cl [THZ1 (Hydrochloride)]
289

// fetch Rlig1-AMP (Homo sapiens, UniProt Q8N999) 1-D Distance for COc1cccc2c1C(=N)c1c(O)c3c(c(O)c1C2=O)C[C@@](O)(C(C)=O)C[C@@H]3O[C@H]1C[C@H](N)[C@H](O)[C@H](C)O1
1374

// fetch Rlig1-AMP (Homo sapiens, UniProt Q8N999) 1-D Distance for NC[C@@H]1O[C@H](O[C@H]2[C@@H](O)[C@H](O[C@@H]3[C@@H](O)[C@H](N)C[C@H](N)[C@H]3O[C@H]3O[C@H](CO)[C@@H](O)[C@H](O)[C@H]3N)O[C@@H]2CO)[C@H](N)[C@@H](O)[C@@H]1O.O=S(=O)(O)O [Paromomycin (sulfate)]
1220
